- targetEntity: T1, 4H918-AA
- T1 chain: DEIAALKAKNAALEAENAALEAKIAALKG
- experimentNotes: two-hybrid library CCmax;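 further: natural log of median RNA to DNA barcode read ratio; higher means stronger binding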
- recordedConditions: mean of both orientations
readoutKind: interaction score
Write the number on its own, no unit after it.

Please fill in: interaction score reported for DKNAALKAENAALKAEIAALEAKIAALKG [4H3782-AA] = -0.968

Lookup result for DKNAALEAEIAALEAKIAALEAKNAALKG [4H3112-AA] ; measured interaction score: -1.44

response.value for DEIAALKAKIAALEAENAALKAKIAALEG [4H797-AA] (field: interaction score) = -0.389

interaction score for DEIAALKAEIAALEAKNAALEAKNAALKG [4H568-AA] is -1.24

Reported interaction score of DEIAALKAENAALEAKIAALKAKNAALEG [4H687-AA] : -0.666

Field interaction score (entry DKIAALEAKNAALEAEIAALKAEIAALKG [4H2442-AA] ) reads -1.29

Reported interaction score for DKNAALEAKIAALEAENAALKAEIAALKG [4H3354-AA] was -1.56
